- methodNotes: Efflux ratio of permeability from apical to basolateral side over basolateral to apical side of human Caco2 cells up to 95 mins by LC-MS/MS analysis
- conditionSummary: Caco-2
observedProperty: efflux ratio at 95 min

1. Cc1coc2cc(Cl)c(Oc3ccncc3C(=O)N3CCN(C4CC4)c4ccccc43)cc12
2. CCOC(=O)CNC(=O)/C=C/c1oc2ccc(Cl)c(Oc3ccncc3C(=O)N3CCN(C4CC4)c4ccccc43)c2c1C
Qu. Exercise: compare 1 and 2 ; which one has the greater efflux ratio at 95 min? Your choice should be expressed through its label.
Ans. 1
(1: 0.71, 2: 0.48)

###

- methodNotes: Drug level in ICR mouse bile at 50 mg/kg, po after 3 hrs by LC-MS/MS analysis
- Assay type: ADME, organism-based
- Set-up: dose 50 mg/kg, route oral
- conditionSummary: read-out: Drug uptake
observedProperty: concentration at 3 h (ng/mL)
Numeric only. Scale: ng/mL

Qu. Fill in the blank: the reported concentration at 3 h of Cc1coc2cc(Cl)c(Oc3ccncc3C(=O)N3CCN(C4CC4)c4ccccc43)cc12 is ____.
Ans. 438

###

- methodNotes: Drug level in ICR mouse gallbladder at 50 mg/kg, po after 3 hrs by LC-MS/MS analysis
- Format: ADME, organism-based, Gall bladder
- Design: dose 50 mg/kg, route oral
- conditionSummary: read-out: Drug uptake
observedProperty: concentration at 3 h (ng/mL)
Numeric only. Scale: ng/mL

Qu. Fill in the blank: the reported concentration at 3 h of Cc1coc2cc(Cl)c(Oc3ccncc3C(=O)N3CCN(C4CC4)c4ccccc43)cc12 is ____.
Ans. 410

###

- assayTarget: G-protein coupled bile acid receptor 1 (Homo sapiens, UniProt Q8TDU6)
- Sequence (Q8TDU6 whole entry): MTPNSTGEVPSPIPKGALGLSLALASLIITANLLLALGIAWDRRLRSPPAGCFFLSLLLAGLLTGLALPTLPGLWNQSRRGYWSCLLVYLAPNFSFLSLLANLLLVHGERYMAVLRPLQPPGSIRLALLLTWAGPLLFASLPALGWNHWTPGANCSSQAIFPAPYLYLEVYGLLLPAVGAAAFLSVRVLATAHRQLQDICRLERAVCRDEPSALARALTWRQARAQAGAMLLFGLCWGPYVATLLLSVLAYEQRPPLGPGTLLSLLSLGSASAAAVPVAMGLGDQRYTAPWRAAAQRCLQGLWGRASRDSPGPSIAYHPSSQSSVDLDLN
- methodNotes: Agonist activity at human TGR5 expressed in HEK293 cells co-expressing CRE after 5.5 hrs by luciferase reporter gene assay
- Format: functional, cell-based
pEC50: −log10 of the molar value.
observedProperty: pEC50

1. CCOC(=O)CNC(=O)c1coc2cc(Cl)c(Oc3ccncc3C(=O)N3CCN(C4CC4)c4ccccc43)cc12    5.85
2. CCOC(=O)CNC(=O)CCc1coc2cc(Cl)c(Oc3ccncc3C(=O)N3CCN(C4CC4)c4ccccc43)cc12    6.92
3. CCOC(=O)CCc1oc2ccc(Cl)c(Oc3ccncc3C(=O)N3CCN(C4CC4)c4ccccc43)c2c1C    7.74
4. O=C(c1cnccc1Oc1cc2ccoc2cc1Cl)N1CCN(C2CC2)c2ccccc21    8.85
5. O=C(c1cnccc1Oc1cccc2ccccc12)N1CCN(C2CC2)c2ccccc21    7.77

1. O=C(c1cnccc1Oc1ccc2cc[nH]c2c1)N1CCN(C2CC2)c2ccccc21
2. O=C(c1cnccc1Oc1ccc2cccnc2c1)N1CCN(C2CC2)c2ccccc21
3. O=C(c1cnccc1Oc1ccc2sccc2c1)N1CCN(C2CC2)c2ccccc21
Qu. Task field, ranking: reported pEC50, descending order. API: response body holds the labels in the requested order.
Ans. 3, 2, 1

a. Cc1c(C(=O)O)oc2cc(Cl)c(Oc3ccncc3C(=O)N3CCN(C4CC4)c4ccccc43)cc12
b. O=C(O)CCc1coc2cc(Cl)c(Oc3ccncc3C(=O)N3CCN(C4CC4)c4ccccc43)cc12
c. CCOC(=O)c1coc2cc(Cl)c(Oc3ccncc3C(=O)N3CCN(C4CC4)c4ccccc43)cc12
d. Cc1c(Br)oc2cc(Cl)c(Oc3ccncc3C(=O)N3CCN(C4CC4)c4ccccc43)cc12
e. O=C(c1cnccc1Oc1ccc2ncsc2c1)N1CCN(C2CC2)c2ccccc21
Qu. Hi! Can you put these in order of pEC50, lowest number first? API: response body holds the labels in the requested order.
Ans. b, a, e, d, c

A. CCOC(=O)CNC(=O)CCc1oc2ccc(Cl)c(Oc3ccncc3C(=O)N3CCN(C4CC4)c4ccccc43)c2c1C
B. Cc1noc2cc(Oc3ccncc3C(=O)N3CCN(C4CC4)c4ccccc43)ccc12
C. Cc1coc2cc(Cl)c(Oc3ccncc3C(=O)N3CCN(C4CC4)c4ccccc43)cc12
D. CCOC(=O)CNC(=O)c1oc2cc(Cl)c(Oc3ccncc3C(=O)N3CCN(C4CC4)c4ccccc43)cc2c1C
Qu. Task field, ranking: reported pEC50, descending order. API: response body holds the labels in the requested order.
Ans. C, A, D, B
(C: 9.55, A: 7.52, D: 7.11, B: 6.62)

###

- assayTarget: G-protein coupled bile acid receptor 1 (Homo sapiens, UniProt Q8TDU6)
- methodNotes: Agonist activity at human TGR5
- conditionSummary: read-out: EC50
pEC50: −log10 of the molar value.
observedProperty: pEC50

I. CC(=O)c1cc(C(=O)N2CCN(C3CC3)c3ccccc32)ccc1O
II. CC(=O)c1cccc(Oc2ccncc2C(=O)N2CCN(C3CC3)c3ccccc32)c1
Qu. Exercise: compare I and II ; which one has the greater pEC50? Your choice should be expressed through its label.
Ans. I

###

- methodNotes: Drug level in ICR mouse blood at 50 mg/kg, po after 3 hrs by LC-MS/MS analysis
- Format: ADME, organism-based
- Design: dose 50 mg/kg, route oral
- conditionSummary: read-out: Drug uptake
observedProperty: concentration at 3 h (ng/mL)
Numeric only. Scale: ng/mL

Qu. Fill in the blank: the reported concentration at 3 h of Cc1coc2cc(Cl)c(Oc3ccncc3C(=O)N3CCN(C4CC4)c4ccccc43)cc12 is ____.
Ans. 65

###

- assayTarget: G-protein coupled bile acid receptor 1 (Mus musculus, UniProt Q80SS6)
- methodNotes: Agonist activity at mouse TGR5 expressed in HEK293 cells co-expressing CRE after 5.5 hrs by luciferase reporter gene assay
pEC50: −log10 of the molar value.
observedProperty: pEC50

1) CCOC(=O)CNC(=O)CCc1oc2ccc(Cl)c(Oc3ccncc3C(=O)N3CCN(C4CC4)c4ccccc43)c2c1C    7.07
2) CCOC(=O)CNC(=O)/C=C/c1oc2ccc(Cl)c(Oc3ccncc3C(=O)N3CCN(C4CC4)c4ccccc43)c2c1C    8.21
3) Cc1c(/C=C/C(=O)O)oc2ccc(Cl)c(Oc3ccncc3C(=O)N3CCN(C4CC4)c4ccccc43)c12    7.74
4) O=C(c1cnccc1Oc1ccc2occc2c1)N1CCN(C2CC2)c2ccccc21    7.55
5) Cc1noc2ccc(Oc3ccncc3C(=O)N3CCN(C4CC4)c4ccccc43)cc12    8.26
6) O=C(c1cnccc1Oc1ccc2sccc2c1)N1CCN(C2CC2)c2ccccc21    7.28

a. O=C(c1cnccc1Oc1cc2ccoc2cc1Cl)N1CCN(C2CC2)c2ccccc21
b. CCOC(=O)CCc1oc2ccc(Cl)c(Oc3ccncc3C(=O)N3CCN(C4CC4)c4ccccc43)c2c1C
c. Cc1coc2cc(Cl)c(Oc3ccncc3C(=O)N3CCN(C4CC4)c4ccccc43)cc12
d. CCOC(=O)Cc1coc2cc(Cl)c(Oc3ccncc3C(=O)N3CCN(C4CC4)c4ccccc43)cc12
Qu. Hi! Can you put these in order of pEC50, lowest number first? API: response body holds the labels in the requested order.
Ans. b, d, a, c
(b: 7.14, d: 7.42, a: 8.00, c: 9.04)

###

- assayTarget: G-protein coupled bile acid receptor 1 (Mus musculus, UniProt Q80SS6)
- Sequence (Q80SS6 whole entry): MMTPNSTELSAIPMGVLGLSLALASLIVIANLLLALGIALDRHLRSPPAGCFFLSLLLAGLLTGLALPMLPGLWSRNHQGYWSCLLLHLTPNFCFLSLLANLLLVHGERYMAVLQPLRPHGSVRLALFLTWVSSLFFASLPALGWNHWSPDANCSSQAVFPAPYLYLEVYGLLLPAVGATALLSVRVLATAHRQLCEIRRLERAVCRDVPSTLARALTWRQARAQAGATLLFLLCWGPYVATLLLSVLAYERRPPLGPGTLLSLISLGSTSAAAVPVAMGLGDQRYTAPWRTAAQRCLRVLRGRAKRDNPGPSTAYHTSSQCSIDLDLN
- methodNotes: Agonist activity at mouse TGR5 expressed in HEK293 cells co-expressing CRE after 5.5 hrs by luciferase reporter gene assay
observedProperty: EC50 (nM)

1) COC(=O)CCc1coc2cc(Cl)c(Oc3ccncc3C(=O)N3CCN(C4CC4)c4ccccc43)cc12    82
2) Cc1c(CCC(=O)O)oc2ccc(Cl)c(Oc3ccncc3C(=O)N3CCN(C4CC4)c4ccccc43)c12    101
3) CCOC(=O)/C=C/c1oc2ccc(Cl)c(Oc3ccncc3C(=O)N3CCN(C4CC4)c4ccccc43)c2c1C    16
4) CCOC(=O)c1coc2cc(Cl)c(Oc3ccncc3C(=O)N3CCN(C4CC4)c4ccccc43)cc12    39
5) Cc1coc2ccc(Oc3ccncc3C(=O)N3CCN(C4CC4)c4ccccc43)cc12    2.4
6) Cc1c(Br)oc2cc(Cl)c(Oc3ccncc3C(=O)N3CCN(C4CC4)c4ccccc43)cc12    66
7) O=C(c1cnccc1Oc1ccc2ncsc2c1)N1CCN(C2CC2)c2ccccc21    60

A. O=C(c1cnccc1Oc1cccc2ccccc12)N1CCN(C2CC2)c2ccccc21
B. O=C(c1cnccc1Oc1ccc2ccoc2c1)N1CCN(C2CC2)c2ccccc21
Qu. Lower value of EC50 belongs to which: A or B ? Your choice should be expressed through its label.
Ans. B
(B: 43 nM, A: 66 nM)
